- Assayed System: IDH1-R132H recombinant protein (Homo sapiens, UniProt O75874, R132H)
- Sequence (O75874 whole entry R132H): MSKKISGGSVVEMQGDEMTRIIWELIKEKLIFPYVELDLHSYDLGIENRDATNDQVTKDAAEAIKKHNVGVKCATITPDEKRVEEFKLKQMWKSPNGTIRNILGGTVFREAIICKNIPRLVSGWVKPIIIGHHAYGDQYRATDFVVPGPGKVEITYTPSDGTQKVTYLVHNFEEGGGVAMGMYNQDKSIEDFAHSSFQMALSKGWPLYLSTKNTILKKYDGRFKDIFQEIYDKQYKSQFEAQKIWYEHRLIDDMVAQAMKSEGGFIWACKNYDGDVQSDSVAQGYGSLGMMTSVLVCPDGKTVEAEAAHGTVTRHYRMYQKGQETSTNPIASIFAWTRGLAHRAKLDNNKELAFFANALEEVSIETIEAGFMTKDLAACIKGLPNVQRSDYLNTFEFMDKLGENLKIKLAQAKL
- Assay Info: IDH1-R132H enzymatic assay (NADPH consumption, diaphorase/resazurin readout)
- Applied Conditions: read-out: Enzyme IDH1 R132H Range
pIC50: −log10 of the molar value.
Collected pIC50 values appear next to each entry.

Known pIC50 results, listed for orientation:
| Compound | Recorded Metric | Reported Result |
| --- | --- | --- |
| C[C@@H](Nc1ccc(C#N)n(C)c1=O)c1nc2cc(Cl)ccc2[nH]c1=O | pIC50 | 6.00 to 7.00 |
| CC(Nc1ccc(C#N)n(C)c1=O)c1cc2cc(Cl)c(F)cc2[nH]c1=O (stereo not shown) | pIC50 | 7.00 to 8.00 |

input: Recorded pIC50 of "C[C@H](Nc1ccc(C#N)[nH]c1=O)c1cc2cc(Cl)ccc2[nH]c1=O" , please.
output: 7.00 to 8.00

input: Item "Cn1cccc(NCc2cc3cc(Cl)c(OCc4ccccn4)cc3[nH]c2=O)c1=O" has what recorded pIC50?
output: 7.00 to 8.00

---

- Assayed System: IDH1-R132C recombinant protein (Homo sapiens, UniProt O75874, R132C)
- Sequence (O75874 whole entry R132C): as the sequence (O75874 whole entry R132H) above, with H132C counted along it
- Assay Info: IDH1-R132C enzymatic assay (NADPH consumption, diaphorase/resazurin readout)
- Applied Conditions: read-out: Enzyme IDH1 R132C Range
Recorded Metric: IC50

These solved cases illustrate the format of a correct answer.
| Smiles Entry | Recorded Metric | Reported Result |
| --- | --- | --- |
| C[C@H](Nc1ccc(C#N)n(C)c1=O)c1cc2cc(Cl)c(F)cc2[nH]c1=O | IC50 | 100 to 1000 nM |
| N#Cc1ccc(NCc2cc3cc(Cl)ccc3[nH]c2=O)c(=O)[nH]1 | IC50 | 100 to 1000 nM |
| C[C@H](Nc1ccc(C#N)[nH]c1=O)c1cc2cc(Cl)ccc2[nH]c1=O | IC50 | 100 to 1000 nM |
| Cn1cccc(NCc2cc3cc(Cl)c(OCc4ccccn4)cc3[nH]c2=O)c1=O | IC50 | > 10000 nM |
| C[C@@H](Nc1ccc(C#N)n(C)c1=O)c1cc2cc(Cl)c(F)cc2[nH]c1=O | IC50 | > 10000 nM |

input: Entry "C[C@H](Nc1ccc(C#N)n(C)c1=O)c1cc2cc(Cl)cc(F)c2[nH]c1=O" has what IC50?
output: 100 to 1000 nM

input: Form field: reported IC50 of "C[C@@H](Nc1ccc(C#N)n(C)c1=O)c1nc2cc(Cl)ccc2[nH]c1=O"
output: 1000 to 10000 nM

input: Looking for the measured IC50 of "C[C@H](Nc1ncc(C#N)n(C)c1=O)c1cc2cc(Cl)ccc2[nH]c1=O" , can you help?
output: 100 to 1000 nM

---

- System: HCT116 isogenic IDH1-R132C mutant cells
- Assay Info: Cellular 2-HG assay using HCT116 mutant IDH1 cells (R132C)
- Format: cell-based
- Applied Conditions: Homo sapiens, HCT-116; cellular 2-HG inhibition, 24 hours, RapidFire mass spectrometry; read-out: HCT116 IDH1 R132C Range
- Experimental: HCT116 isogenic IDH1-R132H and IDH1-R132C mutant cells were cultured in growth media (McCoy's 5A, 10% fetal bovine serum, 1× antibiotic-antimycotic solution and 0.3 mg/mL G418) in 5% CO2 in an incubator at 37° C. […] An aliquot of 125 μL of extracted supernatant was analyzed by RapidFire high-throughout-mass spectrometry (Agilent) to determine the cellular 2-HG level. […]
Recorded Metric: IC50

Recorded results for 2 molecules are shown here.
| Molecule | Assayed System | IC50 |
| --- | --- | --- |
| C[C@H](Nc1ccc(C#N)n(C)c1=O)c1cc2cc(Cl)ccc2[nH]c1=O [Compound I-13] | HCT116 isogenic IDH1-R132C mutant cells | 10 to 100 nM |
| CC(C)Oc1cc2[nH]c(=O)c([C@H](C)Nc3ccc(C#N)n(C)c3=O)cc2cc1Cl [Compound I-29] | HCT116 isogenic IDH1-R132C mutant cells | 10 to 100 nM |

input: Look up IC50: C[C@H](Nc1ccc(C#N)[nH]c1=O)c1cc2cc(Cl)ccc2[nH]c1=O [Compound I-14]
output: 100 to 1000 nM

input: # IC50 lookup, item C[C@H](Nc1ccc(C#N)n(C)c1=O)c1cc2cc(Cl)cnc2[nH]c1=O [Compound I-31]
output: > 1000 nM
